Assay: yeast display, Sf9 membrane polyspecificity reagent, FACS + sequencing; frameworks hold sequencing errors

{"columns": ["input_sequence", "polyreactivity (PSR sort gate)"],
 "data": [
  ["QVQLVESGGGLDQAGGSLRLTCAASGGTFVSNAMRWSRQAPGKERELVAAISSSTGSTYYADSVKGRFTISRDNAKKTVYLQMISLKPEDTAVYYCAADSWWDYDSWGQGPQVTVSS", "low polyreactivity"],
  ["QVQLVESGGGLVQAGGSLRLSCAASGRIFGYNAMGWYRPAPGKEREVVAAISWNGGSTYYADSVKGRFTISRDNAKNTVYLQMNSLKPEDTAVYYCNADPSDRRYPHTWTKMGYWGQGTQVTVSS", "low polyreactivity"],
  ["QEQLVESGGGLVQAGGSLRLSCAASGSIFATYAMGWNRQAPVKERELVAAITSSDGSTNYADSVKGRFTISRDNAKNTVYLLMNSLKPEDTAVYYCAADGTVRSLGRYYHWGQGTQVTVSS", "low polyreactivity"],
  ["QVQLVESGGGLVQAGGSLRLSCAASGSTFNANTMGWYRQAPGKEREFVAAISWTGASTYYADSVKGRFTISRDNAKNTVYLQMNSLKPEDTAVYYCNADYTVADGPYRDGYDYWGQGTQVTVSS", "low polyreactivity"]
]}
